src = patent US20250163162A1

Reported IL-1β secretion, LPS treated monocytes, at 0 µM (LPS only) values are given for each entry in this list.
TGT: T1, IL10Rα/IL2Rγ receptor (human) (UniProt Q13651)
T1 sequence (looked up) 1: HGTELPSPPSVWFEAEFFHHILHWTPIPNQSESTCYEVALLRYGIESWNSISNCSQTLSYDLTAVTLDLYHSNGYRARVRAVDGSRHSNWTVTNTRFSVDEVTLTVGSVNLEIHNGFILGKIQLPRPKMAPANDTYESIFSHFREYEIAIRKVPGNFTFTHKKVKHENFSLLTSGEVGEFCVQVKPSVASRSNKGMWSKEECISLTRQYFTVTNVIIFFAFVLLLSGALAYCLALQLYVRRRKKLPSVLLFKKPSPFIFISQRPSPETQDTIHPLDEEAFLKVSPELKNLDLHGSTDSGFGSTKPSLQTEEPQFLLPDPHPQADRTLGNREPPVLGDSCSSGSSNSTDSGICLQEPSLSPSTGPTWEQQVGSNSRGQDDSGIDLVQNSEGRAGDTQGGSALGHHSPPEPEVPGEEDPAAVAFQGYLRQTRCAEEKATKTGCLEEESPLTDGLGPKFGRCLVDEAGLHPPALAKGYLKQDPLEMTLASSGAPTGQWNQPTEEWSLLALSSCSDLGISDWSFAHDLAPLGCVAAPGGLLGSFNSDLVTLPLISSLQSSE
T1 sequence (looked up) 2: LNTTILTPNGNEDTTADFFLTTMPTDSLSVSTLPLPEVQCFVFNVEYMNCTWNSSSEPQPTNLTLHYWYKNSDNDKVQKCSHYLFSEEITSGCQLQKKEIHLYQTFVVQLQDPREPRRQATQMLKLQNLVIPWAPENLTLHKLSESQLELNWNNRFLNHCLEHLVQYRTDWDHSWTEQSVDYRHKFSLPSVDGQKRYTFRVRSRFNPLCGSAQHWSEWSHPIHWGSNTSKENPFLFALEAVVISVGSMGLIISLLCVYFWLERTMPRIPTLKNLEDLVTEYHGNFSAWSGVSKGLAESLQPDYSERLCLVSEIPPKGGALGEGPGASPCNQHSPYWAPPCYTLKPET
METHOD DESCRIPTION: cell-based or functional assay
Expressed in pg/mL, but write only the number.

Observe how each entry below is paired with its result.
BINDER	RECORDED MEASUREMENT
hIL10Ra_VHH14 - hIL2Rg_VHH19, linker GGGSGGGS, tag his (bispecific antibody, not shown: small tags and cut ends) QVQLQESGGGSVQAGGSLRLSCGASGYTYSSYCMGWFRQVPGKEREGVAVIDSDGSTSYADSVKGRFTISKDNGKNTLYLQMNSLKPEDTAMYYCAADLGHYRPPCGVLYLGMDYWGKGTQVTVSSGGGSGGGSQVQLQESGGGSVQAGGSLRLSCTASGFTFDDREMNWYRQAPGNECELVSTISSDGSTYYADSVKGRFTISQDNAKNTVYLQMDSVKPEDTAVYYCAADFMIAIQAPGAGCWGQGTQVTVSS	6880
hIL10Ra_VHH14 - hIL2Rg_VHH19, linker GGGS, tag Fc (bispecific antibody, not shown: a dimerising Fc or GST) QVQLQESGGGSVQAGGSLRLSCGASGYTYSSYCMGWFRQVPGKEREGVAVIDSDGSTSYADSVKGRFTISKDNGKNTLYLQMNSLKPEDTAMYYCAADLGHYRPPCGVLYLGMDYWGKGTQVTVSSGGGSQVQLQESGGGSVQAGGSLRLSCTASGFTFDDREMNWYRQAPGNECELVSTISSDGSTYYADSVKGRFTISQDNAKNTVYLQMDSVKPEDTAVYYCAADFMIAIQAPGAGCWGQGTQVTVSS	6880
hIL10Ra_VHH14 - hIL2Rg_VHH19, linker GS, tag his (bispecific antibody, not shown: small tags and cut ends) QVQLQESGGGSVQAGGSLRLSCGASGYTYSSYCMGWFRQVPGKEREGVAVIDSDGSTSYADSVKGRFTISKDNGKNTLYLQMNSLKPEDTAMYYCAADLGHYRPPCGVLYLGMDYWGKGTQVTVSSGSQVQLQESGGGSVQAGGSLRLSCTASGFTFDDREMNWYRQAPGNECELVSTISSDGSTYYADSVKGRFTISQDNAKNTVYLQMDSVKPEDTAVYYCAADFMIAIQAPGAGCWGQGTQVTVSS	6880
hIL10Ra_VHH14 - hIL2Rg_VHH19, No linker, tag his (bispecific antibody, not shown: small tags and cut ends) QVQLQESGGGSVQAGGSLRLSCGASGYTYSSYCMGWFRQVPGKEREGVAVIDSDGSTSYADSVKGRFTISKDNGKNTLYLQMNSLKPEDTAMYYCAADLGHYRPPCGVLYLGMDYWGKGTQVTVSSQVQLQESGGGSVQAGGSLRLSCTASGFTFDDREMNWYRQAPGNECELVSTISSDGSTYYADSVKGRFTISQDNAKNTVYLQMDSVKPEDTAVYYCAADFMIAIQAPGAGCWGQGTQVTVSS	6880
hIL10Ra_VHH14 - hIL2Rg_VHH19, linker …, tag his (bispecific antibody, not shown: small tags and cut ends) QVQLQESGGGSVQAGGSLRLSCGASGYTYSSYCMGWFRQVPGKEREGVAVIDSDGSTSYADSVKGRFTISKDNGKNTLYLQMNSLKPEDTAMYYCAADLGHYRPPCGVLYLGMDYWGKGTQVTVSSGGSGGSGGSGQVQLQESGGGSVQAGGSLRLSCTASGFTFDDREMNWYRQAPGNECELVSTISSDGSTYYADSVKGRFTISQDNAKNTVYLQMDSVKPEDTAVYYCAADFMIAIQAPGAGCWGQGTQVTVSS	6880

Looking for the measured IL-1β secretion, LPS treated monocytes, at 0 µM (LPS only) of hIL10Ra_VHH14 - hIL2Rg_VHH19, linker GGSGGS, tag his (bispecific antibody, not shown: small tags and cut ends) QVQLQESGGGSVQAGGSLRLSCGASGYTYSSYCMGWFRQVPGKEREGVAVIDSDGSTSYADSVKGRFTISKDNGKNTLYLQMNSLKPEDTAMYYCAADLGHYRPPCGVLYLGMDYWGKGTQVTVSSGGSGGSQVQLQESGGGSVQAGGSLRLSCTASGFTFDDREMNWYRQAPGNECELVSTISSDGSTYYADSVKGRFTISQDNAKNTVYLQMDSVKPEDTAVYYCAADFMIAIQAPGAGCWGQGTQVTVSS , can you help? 6880

Looking for the measured IL-1β secretion, LPS treated monocytes, at 0 µM (LPS only) of hIL10Ra_VHH14 - hIL2Rg_VHH19, linker GGGS, tag his (bispecific antibody, not shown: small tags and cut ends) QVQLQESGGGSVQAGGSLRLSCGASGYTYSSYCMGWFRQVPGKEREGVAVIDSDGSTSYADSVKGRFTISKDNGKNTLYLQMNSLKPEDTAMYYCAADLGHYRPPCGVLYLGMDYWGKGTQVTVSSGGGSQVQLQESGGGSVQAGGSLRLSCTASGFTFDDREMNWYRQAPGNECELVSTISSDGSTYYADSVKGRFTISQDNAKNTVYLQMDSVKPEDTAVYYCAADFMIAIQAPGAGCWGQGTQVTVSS , can you help? 6880
